# ASSAYED TARGET: T1, HaloTag-ATRX ADD domain (163-292)
# T1 chain: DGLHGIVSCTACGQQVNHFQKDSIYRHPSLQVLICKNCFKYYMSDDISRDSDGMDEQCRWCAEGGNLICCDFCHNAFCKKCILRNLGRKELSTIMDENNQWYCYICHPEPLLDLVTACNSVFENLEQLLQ
# ASSAY METHOD TEXT: peptide microarray binding signal (635 nm), min-max normalized on array (fraction of array maximum); higher = stronger binding
# EXPERIMENTAL PARAMETERS: peptide region: Unmod H2B variant; binder concentration: 50 nM
Each entry gets not satisfied if its peptide microarray binding signal stays under 0.007, and satisfied if its peptide microarray binding signal is 0.007 or above.

Before answering, review these 2 worked examples.
PELAKSAPAPKKG [Unmod H2B variant P E L A K S A P A P K K G]
not satisfied
NSFVNDIFERIAG [Unmod H2B variant N S F V N D I F E R I A G]
satisfied

Problem: Does peptide microarray binding signal meet or surpass 0.007 for EGKKRKRTRKESY [Unmod H2B variant E G K K R K R T R K E S Y] ?
Solution: not satisfied

Problem: Assess whether reported peptide microarray binding signal for PGELAKHAVSEGT [Unmod H2B variant P G E L A K H A V S E G T] sits at 0.007 or higher.
Solution: satisfied

Problem: Check this binder for peptide microarray binding signal at or above 0.007: NSFVTDIFERIAS [Unmod H2B variant N S F V T D I F E R I A S]
Solution: not satisfied

Problem: Confirm if peptide microarray binding signal reported for the binder YSKRSTISSREIQ [Unmod H2B variant Y S K R S T I S S R E I Q] is 0.007 or above.
Solution: satisfied

Problem: Form field: peptide microarray binding signal at least 0.007? Entry: GISSKAMSIMNSF [Unmod H2B variant G I S S K A M S I M N S F]
Solution: satisfied
